- Tested on: MDA-MB-468 cells
- Condition Info: 48 h
Where a SMILES comes first, the peptide text is derived from it. [ ]: non-standard residue; d: D form. The star is where a group is joined. NMe2Val = CC(C)[C@@H](C(=O)*)N(C)C; NHhexadecyl = CCCCCCCCCCCCCCCCN*; NFurfurylGly = O=C(O)CNCc1ccco1; NMeV = CN[C@H](C(=O)O)C(C)C; Nphe = O=C(O)CNCc1ccccc1; NHBu = CCCCN*
Please go through the items and note down their IC50.

See these solved cases before continuing.
CC(C)[C@H](NC(=O)[C@H](C(C)C)N(C)C)C(=O)N(C)[C@H](C(=O)N1CCC[C@H]1C(=O)N(CC(=O)NCc1ccccc1)[C@@H](Cc1ccccc1)C(=O)NCc1ccco1)C(C)C [Peptide 11f] :: > 10000 nM
CCCCNC(=O)CN(C(=O)[C@@H]1CCCN1C(=O)[C@H](C(C)C)N(C)C(=O)[C@@H](NC(=O)[C@H](C(C)C)N(C)C)C(C)C)[C@@H](CC(C)C)C(=O)NCc1ccccc1 [Peptide 11c] :: ~5000 nM
CCCCNC(=O)CN(Cc1ccco1)C(=O)[C@@H]1CCCN1C(=O)[C@@H]1CCCN1C(=O)[C@H](C(C)C)N(C)C(=O)[C@@H](NC(=O)[C@H](C(C)C)N(C)C)C(C)C [Peptide 5i] (NMe2Val-V[NMeV]PP[NFurfurylGly]-NHBu) :: 1200 nM

Below are some compounds; for each one, tell me its IC50.
1. CCCCNC(=O)CN(Cc1ccccc1)C(=O)[C@@H]1CCCN1C(=O)[C@@H]1CCCN1C(=O)[C@H](C(C)C)N(C)C(=O)[C@@H](NC(=O)[C@H](C(C)C)N(C)C)C(C)C [Peptide 5a] (NMe2Val-V[NMeV]PP[Nphe]-NHBu)
2. CCCCCCCCCCCCCCCCNC(=O)CN(Cc1ccccc1)C(=O)[C@@H]1CCCN1C(=O)[C@@H]1CCCN1C(=O)[C@H](C(C)C)N(C)C(=O)[C@@H](NC(=O)[C@H](C(C)C)N(C)C)C(C)C [Peptide 5f] (NMe2Val-V[NMeV]PP[Nphe]-NHhexadecyl)

Reply:
1: 820 nM; 2: 2100 nM

---

- Tested on: MDA-MB-468 cells
- Condition Info: 48 h
Where a SMILES comes first, the peptide text is derived from it. [ ]: non-standard residue; d: D form. The star is where a group is joined. NMe2Val = CC(C)[C@@H](C(=O)*)N(C)C; NMeV = CN[C@H](C(=O)O)C(C)C; Nphe = O=C(O)CNCc1ccccc1; NHBn = c1ccc(CN*)cc1
Measure Name: IC50

See these solved cases before continuing.
CC(C)[C@H](NC(=O)[C@H](C(C)C)N(C)C)C(=O)N(C)[C@H](C(=O)N1CCC[C@H]1C(=O)N1CCC[C@H]1C(=O)N(CC(=O)NCc1ccccc1)Cc1ccccc1)C(C)C [Peptide 5c] (NMe2Val-V[NMeV]PP[Nphe]-NHBn) :: 1.1 µM
CCCCNC(=O)CN(C(=O)[C@@H]1CCCN1C(=O)[C@H](C(C)C)N(C)C(=O)[C@@H](NC(=O)[C@H](C(C)C)N(C)C)C(C)C)[C@@H](C)C(=O)NCc1ccc(OC)cc1 [Peptide 11g] :: > 10 µM
CC(C)[C@H](NC(=O)[C@H](C(C)C)N(C)C)C(=O)N(C)[C@H](C(=O)N1CCC[C@H]1C(=O)N1CCC[C@H]1C(=O)NCc1ccccc1)C(C)C [cemadotin, reference compound] (NMe2Val-V[NMeV]PP-NHBn) :: 0.0025 µM

--- query ---
Task item: Given CC(C)[C@H](NC(=O)[C@H](C(C)C)N(C)C)C(=O)N(C)[C@H](C(=O)N1CCC[C@H]1C(=O)N(CC(=O)NC1CCCCC1)[C@@H](Cc1ccccc1)C(=O)NCc1ccco1)C(C)C [Peptide 11e] , state its recorded IC50.
Reply: > 10 µM
